# credit: patent CN112159469A

biological target: SARS-CoV-2病毒的S1蛋白的RBD (SARS-CoV-2, UniProt P0DTC2 319-541); assay: BLI (OctetRED96), antibody captured on AHC probe, RBD in solution from 100 nM in 3-fold dilutions, 1:1 global fit
Property: Kd; scope: individual binders
endpoint.label: Kd (nM)

[[record]]
binder = "单抗4L12 (antibody, V domains shown) VH: EVQLVESGGGLVQPGGSLRLSCAASGITVSSNYMNWVRQAPGRGLEWVSLLYSGGSTYYADSVKGRFTISRDNSKNTLYLQMNSLRAEDTAVYYCARDLITYGMDVWGQGTTVTVSS VL: AIQLTQSPSSLSASVGDRVTITCRASQGISSYLAWYQQKPGKAPKLLIYAASTLQSGVPSRFSGSGSGTDFTLTISSLQPEDFATYYCQQLNSYPPLTFGGGTKVEIK"
quantitative_result = 1.49

[[record]]
binder = "单抗12F5 (antibody, V domains shown) VH: EVQLVESGGGLIQPGGSLRLSCAASGFTVSSNYMSWVRQAPGKGLEWVSVIYSGGSTFYADSVKGRFTISRDNSKNTLYLQMNSLRAEDTAVYYCARDLIDYGMDVWGQGTTVTVSS VL: DIQLTQSPSFLSASVGDRVTITCRASQGISSYLAWYQQKPGKAPKLLIYAASTLQSGVPSRFSGSGSGTEFTLTISSLQPEDFATYYCQQLNSYPPYTFGQGTKLEIK"
quantitative_result = 2.22

[[record]]
binder = "单抗16L9 (antibody, V domains shown) VH: EVQLVESGGGLIQPGGSLRLSCAASGFTVSSNYMSWVRQAPGKGLEWVSVIYSGGSTYYADSVKGRFTISRDNSENTLYLQMNSLRAEDTAVYYCARGEIQPYYYYGMDVWGQGTTVTVSS VL: QSVLTQPPSASGSPGQSVTISCTGTSSDFGGYNSVSWYQQHPGKAPKLMIYEVSKRPSGVPDRFSGSKSGNTASLTVSGLQAEDEADYYCSSYAGSNNFDVFGTGTKVTVL"
quantitative_result = 1.21

